Data credit: patent US9272985B2

Target: FabI from S. aureus (Staphylococcus aureus)
Construct: made in house
Sequence (Q6GI75 1-256): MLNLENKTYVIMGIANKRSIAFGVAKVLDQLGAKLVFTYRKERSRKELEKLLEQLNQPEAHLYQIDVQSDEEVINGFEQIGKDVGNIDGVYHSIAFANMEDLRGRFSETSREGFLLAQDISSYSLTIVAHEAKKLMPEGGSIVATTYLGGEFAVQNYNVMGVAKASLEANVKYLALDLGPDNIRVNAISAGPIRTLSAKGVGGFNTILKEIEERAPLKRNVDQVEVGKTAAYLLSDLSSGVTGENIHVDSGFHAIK
Test: In vitro inhibition of recombinant S. aureus FabI enzyme (fluorescence based assay)
Assay type: biochemical

STRUCTURE_SMILES_STRING: CCc1cc(O)c(Oc2ccc(C(N)=O)cc2F)cc1F
IC50: 12 to 14 nM

###

biological target: hERG (Homo sapiens); assay: hERG tail current amplitude in vitro; type: cell-based; conditions: after rundown subtraction
Sequence (Q12809 whole entry): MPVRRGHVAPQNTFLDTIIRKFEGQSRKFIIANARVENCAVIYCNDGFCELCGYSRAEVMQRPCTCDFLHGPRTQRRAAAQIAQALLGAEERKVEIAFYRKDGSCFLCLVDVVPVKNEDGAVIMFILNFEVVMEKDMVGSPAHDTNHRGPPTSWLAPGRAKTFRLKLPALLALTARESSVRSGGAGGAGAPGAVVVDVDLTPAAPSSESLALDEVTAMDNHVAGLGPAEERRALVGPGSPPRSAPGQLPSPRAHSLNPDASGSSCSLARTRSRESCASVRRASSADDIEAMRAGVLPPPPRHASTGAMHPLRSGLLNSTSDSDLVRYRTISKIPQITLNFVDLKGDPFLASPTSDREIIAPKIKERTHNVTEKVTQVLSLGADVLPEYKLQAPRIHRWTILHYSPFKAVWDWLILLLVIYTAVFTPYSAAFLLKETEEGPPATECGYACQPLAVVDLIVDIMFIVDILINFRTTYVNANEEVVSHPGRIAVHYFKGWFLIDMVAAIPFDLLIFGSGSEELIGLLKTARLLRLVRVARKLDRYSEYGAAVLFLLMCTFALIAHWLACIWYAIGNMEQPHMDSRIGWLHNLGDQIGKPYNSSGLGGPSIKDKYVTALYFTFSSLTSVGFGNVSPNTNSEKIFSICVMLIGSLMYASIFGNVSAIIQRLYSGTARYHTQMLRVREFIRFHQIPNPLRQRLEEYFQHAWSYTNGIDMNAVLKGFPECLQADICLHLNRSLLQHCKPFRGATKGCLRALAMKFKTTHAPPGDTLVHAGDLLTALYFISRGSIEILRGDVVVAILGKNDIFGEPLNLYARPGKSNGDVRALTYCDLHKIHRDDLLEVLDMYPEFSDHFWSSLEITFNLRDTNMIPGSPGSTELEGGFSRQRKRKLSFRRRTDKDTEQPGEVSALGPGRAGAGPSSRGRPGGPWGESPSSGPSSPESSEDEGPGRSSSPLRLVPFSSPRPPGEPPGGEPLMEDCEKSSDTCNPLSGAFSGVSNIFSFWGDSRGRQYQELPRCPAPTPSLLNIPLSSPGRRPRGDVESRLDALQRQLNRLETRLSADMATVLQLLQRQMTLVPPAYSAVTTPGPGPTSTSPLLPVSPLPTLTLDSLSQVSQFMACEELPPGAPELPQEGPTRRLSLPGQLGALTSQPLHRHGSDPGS
READOUT_LABEL: inhibition at 30 µM (%)

STRUCTURE_SMILES_STRING: CCc1cc(O)c(Oc2ccc(C(N)=O)cc2F)cc1F
MEASUREMENT_TARGET: hERG (Homo sapiens)
UNIT_OF_MEASURE: %
RESULT: 35.3

###

target: E. coli FabI enzyme (Escherichia coli); experiment: In vitro inhibition of recombinant E. coli FabI enzyme; assay type: biochemical
pIC50: −log10 of the molar value.
READOUT_LABEL: pIC50

STRUCTURE_SMILES_STRING: CCc1cc(O)c(Oc2ccc(C(N)=O)cc2F)cc1F
READOUT_LABEL: pIC50
RESULT: 7.17 to 7.24

###

molecular target: E. coli FabI enzyme (Escherichia coli, UniProt P0AEK4); assay: In vitro inhibition of recombinant E. coli FabI enzyme; type: biochemical; conditions: recombinant E. coli FabI; range over a number of batches; read-out: FabI Inhibition IC50 (μM) E. coli
Sequence (P0AEK4 whole entry): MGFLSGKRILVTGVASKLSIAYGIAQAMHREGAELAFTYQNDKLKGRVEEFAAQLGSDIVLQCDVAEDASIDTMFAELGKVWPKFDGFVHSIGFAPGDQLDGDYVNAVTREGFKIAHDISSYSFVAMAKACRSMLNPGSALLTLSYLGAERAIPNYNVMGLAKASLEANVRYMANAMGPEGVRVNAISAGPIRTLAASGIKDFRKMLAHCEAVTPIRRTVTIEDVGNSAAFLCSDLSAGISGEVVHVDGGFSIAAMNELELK
READOUT_LABEL: IC50

COMPOUND: CCc1cc(O)c(Oc2cccnc2F)cc1F [Comparative Example 2, reference compound]
READOUT_LABEL: IC50
RESULT: 0.019 to 0.065 µM
